FYI, the data here is from patent US20260242735A1.

- experimental target: human CD33 variant P48G (human, UniProt P20138 18-364)
- Sequence (P20138 18-364 P48G limits assumed): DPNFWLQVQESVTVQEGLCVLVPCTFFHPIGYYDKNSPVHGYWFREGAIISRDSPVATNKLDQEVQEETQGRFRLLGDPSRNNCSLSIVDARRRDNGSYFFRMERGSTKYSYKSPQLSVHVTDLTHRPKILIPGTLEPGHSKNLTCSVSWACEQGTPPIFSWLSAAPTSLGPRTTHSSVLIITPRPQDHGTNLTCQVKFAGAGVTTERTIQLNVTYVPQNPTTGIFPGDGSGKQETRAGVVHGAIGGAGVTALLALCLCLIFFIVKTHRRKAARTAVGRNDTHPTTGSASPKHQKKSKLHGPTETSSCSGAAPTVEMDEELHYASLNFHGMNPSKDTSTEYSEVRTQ
- procedure text: flow cytometry, IgG on cells expressing the mutant
assay readout: Mean % WT Binding

Below are worked cases with known answers.
Refmab #4 (antibody, human IgG1, V domains shown, Tested in IgG format; human IgG1 Fc silent (PG-LALA)) VH: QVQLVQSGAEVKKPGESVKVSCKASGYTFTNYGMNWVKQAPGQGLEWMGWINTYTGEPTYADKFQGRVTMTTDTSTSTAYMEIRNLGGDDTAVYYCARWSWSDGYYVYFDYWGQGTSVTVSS VL: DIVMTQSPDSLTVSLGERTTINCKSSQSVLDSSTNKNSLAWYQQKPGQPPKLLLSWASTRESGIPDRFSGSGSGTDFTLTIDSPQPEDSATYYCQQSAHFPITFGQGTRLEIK : 0.4 % of WT
Refmab #3 (antibody, human IgG1, V domains shown, Tested in IgG format; human IgG1 Fc silent (PG-LALA)) VH: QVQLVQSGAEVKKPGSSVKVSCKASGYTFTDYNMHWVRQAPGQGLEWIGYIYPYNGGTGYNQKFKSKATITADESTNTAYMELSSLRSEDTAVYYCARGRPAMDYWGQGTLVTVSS VL: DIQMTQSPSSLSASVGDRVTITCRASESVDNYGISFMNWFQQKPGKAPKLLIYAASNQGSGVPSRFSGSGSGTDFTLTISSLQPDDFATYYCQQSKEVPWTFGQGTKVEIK : 108 % of WT
Refmab #1 (antibody, human IgG1, V domains shown, Tested in IgG format; human IgG1 (Absolute Antibody hP67.6, Cat. No. Ab00283-10.0); also called hP67.6) VH: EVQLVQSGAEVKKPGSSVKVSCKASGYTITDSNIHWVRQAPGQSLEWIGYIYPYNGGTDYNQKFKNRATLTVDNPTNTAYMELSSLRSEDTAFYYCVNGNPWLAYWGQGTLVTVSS VL: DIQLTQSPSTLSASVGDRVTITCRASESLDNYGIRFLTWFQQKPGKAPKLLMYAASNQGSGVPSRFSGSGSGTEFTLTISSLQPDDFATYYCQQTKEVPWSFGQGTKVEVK : 95 % of WT

Task: What measured Mean % WT Binding goes with Refmab #2 (antibody, human IgG1, V domains shown, Tested in IgG format; human IgG1 Fc silent (PG-LALA)) VH: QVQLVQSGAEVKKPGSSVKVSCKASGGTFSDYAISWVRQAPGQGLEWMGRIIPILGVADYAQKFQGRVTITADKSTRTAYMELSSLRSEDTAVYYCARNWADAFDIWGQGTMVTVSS VL: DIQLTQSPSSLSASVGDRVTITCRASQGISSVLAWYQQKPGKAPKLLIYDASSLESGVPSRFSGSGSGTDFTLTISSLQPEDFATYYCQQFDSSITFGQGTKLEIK ?
Result: 80.8 % of WT
